Target or system D(2) dopamine receptor (Rattus norvegicus); recorded quantity log10 of Ki.
Reported Metric: log10 of Ki (log10 of the value in nM)

INSERT INTO assay_data (compound, readout_number) VALUES
  ('Oc1ccc2c(c1)[C@@H]1CCCN(CCN3CCN(c4ccccc4)CC3)[C@H]1CC2', 2.34),
  ('CCCN(CCN1CCN(c2ccc(-c3ccccc3)cc2)CC1)[C@H]1CCc2nc(N)sc2C1', 2.37),
  ('CCCN(CCN1CCN(c2ccccc2)CC1)[C@@H]1CCc2nc(N)sc2C1', 3.30),
  ('Oc1cccc2c1CC[C@@H]1[C@@H]2CCCN1CCN1CCN(c2ccccc2)CC1', 2.92),
  ('CCCN1CCC[C@H]2c3cccc(O)c3CC[C@@H]21 (relative stereo)', 2.54),
  ('CCCN(CCN1CCN(c2ccccc2)CC1)[C@H]1CCc2ccc(O)cc2C1', 2.91),
  ('CCCN1CCC[C@@H]2Cc3c(O)cccc3C[C@H]21 (racemic)', 3.44),
  ('Oc1ccc2c(c1)C[C@H]1[C@@H](CCCN1CCCCN1CCN(c3ccccc3)CC1)C2 (racemic)', 2.46),
  ('Oc1cccc2c1CC[C@H]1[C@H]2CCCN1CCN1CCN(c2ccccc2)CC1', 1.37);
